This listing pairs molecules with measured pTD50.
species: Mus musculus; test: Hepatotoxicity in mouse assessed as carcinogenic potency; conditions: in vivo
Note: the reply should be a number with no unit written.

Worked cases, answers included:
>  <molecule>
CCc1ccc(C(c2ccc(CC)cc2)C(Cl)Cl)cc1

>  <pTD50>
1.988

$$$$
>  <molecule>
Nc1cccc2c(N)cccc12

>  <pTD50>
3.14

$$$$

QUERY: Give its pTD50 value. Item: O=[N+]([O-])c1ccc(Oc2ccc(Cl)cc2Cl)cc1 [NITROFEN]
RESULT: 3.203

QUERY: Repeat with Nc1ccc(Cl)cc1N
RESULT: 1.73

====

organism: Mus musculus; experiment: Hepatotoxicity in mouse assessed as carcinogenic potency; conditions: in vivo
assay metric: pTD50
Note: the reply should be a number with no unit written.

Worked cases, answers included:
>  <smiles representation>
O=C1NC(=O)C(c2ccccc2)(c2ccccc2)N1

>  <value measured>
3.18

$$$$
>  <smiles representation>
ClCC(Cl)CCl

>  <value measured>
4.041

$$$$

QUERY: Give its pTD50 value. Item: Nc1ccc2c(c1)C(=O)c1ccccc1C2=O
RESULT: 2.185

====

This listing pairs compounds with measured pTD50.
species on record: Mus musculus; assay: Hepatotoxicity in mouse assessed as carcinogenic potency; conditions: in vivo
Note: the reply should be a number with no unit written.

>  <compound>
C=C(Cl)CSC(=S)N(CC)CC [SULFALLATE]

>  <pTD50>
3.32

$$$$
>  <compound>
CNc1ccc(N(CCO)CCO)cc1[N+](=O)[O-]

>  <pTD50>
2.953

$$$$
>  <compound>
ClC(Cl)=C(c1ccc(Cl)cc1)c1ccc(Cl)cc1

>  <pTD50>
4.492

$$$$
>  <compound>
ClC(Cl)C(Cl)Cl

>  <pTD50>
3.63

$$$$
>  <compound>
C=C(C)[C@H]1CC=C(C)CC1

>  <pTD50>
1.113

$$$$

Pending compound:
QUERY: Give its pTD50 value. Item: Nc1ccccc1C(=O)OC/C=C/c1ccccc1 [CINNAMYL ANTHRANILATE]
RESULT: 1.529

====

species on record: Mus musculus; assay: Hepatotoxicity in mouse assessed as carcinogenic potency; conditions: in vivo
assay metric: pTD50
Note: the reply should be a number with no unit written.

Worked cases, answers included:
>  <molecule>
C1COCCO1 [DIOXANE]

>  <pTD50>
1.883

$$$$
>  <molecule>
Cc1ccc(Cl)cc1N

>  <pTD50>
2.77

$$$$

QUERY: Give its pTD50 value. Item: FC(F)=C(F)F [TETRAFLUOROETHYLENE]
RESULT: 2.907

QUERY: Repeat with Clc1cc2c(cc1Cl)Oc1cc(Cl)c(Cl)cc1O2 [2,3,7,8-TETRACHLORODIBENZO-P-DIOXIN]
RESULT: 8.867

QUERY: Repeat with C=CC(=C)Cl [CHLOROPRENE]
RESULT: 3.689

QUERY: Repeat with NC(=S)NNC(N)=S
RESULT: 1.423

QUERY: Repeat with CCCl [ETHYL CHLORIDE]
RESULT: 0.93

QUERY: Repeat with CCCN(CCC)c1c([N+](=O)[O-])cc(C(F)(F)F)cc1[N+](=O)[O-] [TRIFLURALIN]
RESULT: 2.96

QUERY: Repeat with Cc1noc(NS(=O)(=O)c2ccc(N)cc2)c1C [SULFISOXAZOLE]
RESULT: 2.004

====

organism: Mus musculus; assay: Hepatotoxicity in mouse assessed as carcinogenic potency; details: in vivo
Returns the class for an entry based on its pTD50. Class ranges: label 0 = under 2, label 1 = from 2 up to 3, label 2 = 3 and over

>  <molecule>
ClCCl [METHYLENE CHLORIDE]

>  <label class>
label 0

$$$$
>  <molecule>
Cc1ccc([N+](=O)[O-])cc1N

>  <label class>
label 1

$$$$
>  <molecule>
O=[N+]([O-])c1ccc2[nH]cnc2c1

>  <label class>
label 1

$$$$

QUERY: Which pTD50 category applies to C1CCOC1 [TETRAHYDROFURAN] here?
RESULT: label 0

====

species on record: Mus musculus; experiment: Hepatotoxicity in mouse assessed as carcinogenic potency; details: in vivo
Use Fulfilled when the recorded pTD50 is no lower than 3; use Not fulfilled when it is lower.

Solved cases (10 shown):
>  <compound>
ClC=C(Cl)Cl [TRICHLOROETHYLENE]

>  <label class>
Not fulfilled

$$$$
>  <compound>
ClCC(Cl)(Cl)Cl

>  <label class>
Not fulfilled

$$$$
>  <compound>
Clc1ccc(Cl)cc1 [1,4-DICHLOROBENZENE]

>  <label class>
Not fulfilled

$$$$
>  <compound>
ClC(Cl)C(Cl)(Cl)Cl [PENTACHLOROETHANE]

>  <label class>
Fulfilled

$$$$
>  <compound>
CC(Cl)(Cl)Cl [TRICHLOROETHANE]

>  <label class>
Fulfilled

$$$$
>  <compound>
O=C1C2(Cl)C3(Cl)C4(Cl)C(Cl)(Cl)C5(Cl)C3(Cl)C1(Cl)C5(Cl)C24Cl (stereo not drawn) [KEPONE]

>  <label class>
Fulfilled

$$$$
>  <compound>
CN(C)c1ccc(C(=O)c2ccc(N(C)C)cc2)cc1 [MICHLER'S KETONE]

>  <label class>
Fulfilled

$$$$
>  <compound>
c1ccc(NNc2ccccc2)cc1 [HYDRAZOBENZENE]

>  <label class>
Fulfilled

$$$$
>  <compound>
Nc1cc(Cl)c(N)c(Cl)c1

>  <label class>
Not fulfilled

$$$$
>  <compound>
CCOC(=O)C(O)(c1ccc(Cl)cc1)c1ccc(Cl)cc1 [CHLOROBENZILATE]

>  <label class>
Not fulfilled

$$$$

QUERY: Hello, I need to know if Nc1c(Br)cc(Br)c2c1C(=O)c1ccccc1C2=O [1-AMINO-2,4-DIBROMOANTHRA-QUINONE] has measured pTD50 not below 3. Thanks!
RESULT: Not fulfilled

QUERY: Repeat with O=C(O)c1cc(/N=N/c2ccc(S(=O)(=O)Nc3ccccn3)cc2)ccc1O [SULFASALAZINE]
RESULT: Not fulfilled

QUERY: Repeat with S=C1NCCN1 [ETHYLENE THIOUREA]
RESULT: Fulfilled

QUERY: Repeat with ClC(Cl)Cl [CHLOROFORM]
RESULT: Fulfilled

QUERY: Repeat with COc1ccc([N+](=O)[O-])cc1N
RESULT: Not fulfilled

QUERY: Repeat with Nc1ccc(Oc2ccc(N)cc2)cc1
RESULT: Not fulfilled

QUERY: Repeat with Nc1ccc(Sc2ccc(N)cc2)cc1 [4,4'-THIODIANILINE]
RESULT: Fulfilled

QUERY: Repeat with COc1ccc(C)cc1N
RESULT: Not fulfilled

QUERY: Repeat with ClC(Cl)=C(Cl)Cl [TETRACHLOROETHYLENE]
RESULT: Fulfilled

QUERY: Repeat with O=[N+]([O-])c1ccc2c3c(cccc13)CC2
RESULT: Fulfilled

QUERY: Repeat with Cc1ccc(N)cc1N
RESULT: Fulfilled

QUERY: Repeat with ClC(Cl)(Cl)C(Cl)(Cl)Cl [HEXACHLOROETHANE]
RESULT: Not fulfilled

QUERY: Repeat with C=CC=C [BUTADIENE]
RESULT: Fulfilled

QUERY: Repeat with Nc1cc(Cl)cc(C(=O)O)c1Cl [CHLORAMBEN]
RESULT: Not fulfilled

QUERY: Repeat with Nc1ccc(Cl)c(N)c1
RESULT: Not fulfilled

QUERY: Repeat with O=NN(O)c1ccccc1 [CUPFERRON]
RESULT: Not fulfilled

QUERY: Repeat with Cc1cc(C)c(N)cc1C
RESULT: Fulfilled
